System: rhLYPLA1
Assay: LYPLA1 and LYPLA2 inhibitors, biochemical, gel-based ABPP, fluorescence, recombinant and endogenous enzyme (AID 493105)
Settings: fluorescent probe labeling, soluble fraction, at 20 µM
The source made the active and inactive calls. How the calls were made is not given here.
Outcome codes: active, inactive

Molecule | Class name
O=C(CN1CCN(C(=O)c2ccco2)CC1)Nc1cc(Cl)ccc1Cl | active
O=C1N=C(N2CCN(Cc3ccccc3)CC2)S/C1=C/c1cccs1 | inactive
COc1ccc(-n2nc(C(=O)NCC(=O)N3CCN(Cc4ccccc4)CC3)c3ccccc3c2=O)cc1OC | inactive
CCN(CC)S(=O)(=O)c1cccc(-c2nnc(SCCOc3ccccc3)o2)c1 | inactive
COc1ccc(-n2c(C)c([N+](=O)[O-])c3ccc(O)c(CN4CCCCC4)c32)cc1 | inactive
CCC(=O)N1CCN(c2ccc(NC(=S)NC(=O)c3ccc(OC)c([N+](=O)[O-])c3)cc2)CC1 | inactive
COc1ccc(C(CNC(=O)COc2ccc(-c3ccccc3)cc2)N2CCOCC2)cc1 (configuration not stated) | inactive
O=C(COc1ccc(Cl)cc1)N1CCN(c2cccc(C(F)(F)F)c2)CC1 | inactive
Clc1ccc(C(c2ccc(Cl)cc2)n2cc[n+](CC(OCc3ccc(Cl)cc3Cl)c3ccc(Cl)cc3Cl)c2)cc1 (configuration not stated) | inactive
COc1ccc(-n2nc(C(=O)NCC(=O)N3CCN(Cc4ccc5c(c4)OCO5)CC3)c3ccccc3c2=O)cc1OC | active
Nc1nc(NCc2ccco2)nc(N2CCN(Cc3ccccc3)CC2)c1[N+](=O)[O-] | inactive
CC(=O)c1ccc(N2CCN(C(=O)c3ccc(C(=O)c4ccccc4)cc3)CC2)cc1 | inactive
COc1ccc(-n2nc(C(=O)NCC(=O)N3CCN(Cc4ccccc4)CC3)c3ccccc3c2=O)cc1 | inactive
Cc1ccc([N+](=O)[O-])c(OCCCN2CCC(Cc3ccccc3)CC2)c1 | inactive
C/C(=C\c1ccccc1)CN1CCN(c2cccc(Cl)c2)CC1 | inactive
CC(=O)c1ccc(N2CCN(C(=O)c3cccc(Oc4ccccc4)c3)CC2)cc1 | inactive
N#Cc1c(N)nc(SCc2ccncc2)c(C#N)c1-c1cccs1 | inactive
O=C(CCCCCCN1C(=O)c2ccccc2C1=O)N1CCC(c2ccccc2)C1 (configuration not stated) | inactive
COc1ccc(N2CCN(C(=O)CCCCCn3c(=O)[nH]c4ccsc4c3=O)CC2)cc1 | inactive
O=C(NC(=S)Nc1sc2c(c1C(=O)O)CCCC2)c1ccccc1 | inactive
CC1CN(Cc2cc(=O)oc3cc(O)c(Cl)cc23)CC(C)O1 (configuration not stated) | inactive
O=C(COc1ccc(Cl)cc1)N1CCN(C/C=C/c2ccccc2)CC1 | inactive

----------
Test system: rhLYPLA2
Assay: LYPLA1 and LYPLA2 inhibitors, biochemical, gel-based ABPP, fluorescence, recombinant and endogenous enzyme (AID 493105)
Settings: fluorescent probe labeling, membrane fraction, at 20 µM, active compounds read high
Activity calls are given as the source filed them. No rule for the calls is given here.

Molecule | Measurement target | inhibition
CCC(=O)N1CCN(c2ccc(NC(=S)NC(=O)c3cccc([N+](=O)[O-])c3)cc2)CC1 | rhLYPLA2 | 5% (inactive)
O=c1[nH]c(CN2CCN(C/C=C/c3ccccc3)CC2)nc2cc(Cl)ccc12 | rhLYPLA2 | 0% (inactive)
C/C(=C\c1ccccc1)CN1CCN(c2cccc(Cl)c2)CC1 | rhLYPLA2 | 0% (inactive)
O=C(CN1CCN(C(=O)c2ccco2)CC1)Nc1cc(Cl)ccc1Cl | rhLYPLA2 | 0% (inactive)
COc1ccc(-n2nc(C(=O)NCC(=O)N3CCN(Cc4ccc5c(c4)OCO5)CC3)c3ccccc3c2=O)cc1OC | rhLYPLA2 | 50%
O=C(COc1ccc(Cl)cc1)N1CCN(C/C=C/c2ccccc2)CC1 | rhLYPLA2 | 12% (inactive)
O=C(CN1CCN(C(=O)c2ccccc2)CC1)Nc1cc(S(=O)(=O)N2CCCC2)ccc1Cl | rhLYPLA2 | 3% (inactive)
COc1cc(COc2ccc3c(C)c(Cc4ccccc4)c(=O)oc3c2)cc(OC)c1OC | rhLYPLA2 | 0% (inactive)
COc1ccc(OC)c(NC(=O)C2CCC(CNc3c(N4CCC(C)CC4)c(=O)c3=O)CC2)c1 (stereo not given) | rhLYPLA2 | 7% (inactive)
O=C(NC(=S)Nc1sc2c(c1C(=O)O)CCCC2)c1ccccc1 | rhLYPLA2 | 34%
